assay: Stability assay in 25% TIDE 2X detergent without DTPA (residual Abz-AGLA-Nba protease activity); assay type: physicochemical; conditions: 180 min at 50°C; variant residual AGLA activity divided by wild-type residual activity
measurement-kind: PI (relative stability), 25% TIDE 2X without DTPA

Input: Please report the recorded PI (relative stability), 25% TIDE 2X without DTPA for Q061E: single-substitution thermolysin variant (SEQ ID NO:3 numbering) (protein, listed as Geobacillus caldoproteolyticus) ITGTSTVGVGRGVLGDQKNINTTYSTYYYLQDNTRGNGIFTYDAKYRTTLPGSLWADADNEFFASYDAPAVDAHYYAGVTYDYYKNVHNRLSYDGNNAAIRSSVHYSQGYNNAFWNGSQMVYGDGDGQTFIPLSGGIDVVAHELTHAVTDYTAGLIYQNESGAINEAISDIFGTLVEFYANKNPDWEIGEDVYTPGISGDSLRSMSDPAKYGDPDHYSKRYTGTQDNGGVHINSGIINKAAYLISQGGTHYGVSVVGIGRDKLGKIFYRALTQYLTPTSNFSQLRAAAVQSATDLYGSTSQEVASVKQAFDAVGVK .
Output: 1.05
